Test system: Homo sapiens
Assay: Evaluation of pharmacokinetic parameters for Clarithromycin following multiple oral doses of Clarithromycin tablets.
Type: ADME, organism-based
Parameters: dose 250 mg, dose 500 mg, dose 1000 mg, route oral
Settings: in vivo, po, dose 250 mg, dosed compound id 21, dosed compound name CLARITHROMYCIN, regimen Every 12h, tissue Plasma
test-readout: t1/2

For reference, reported t1/2 for CC[C@H]1OC(=O)[C@H](C)[C@@H](O[C@H]2C[C@@](C)(OC)[C@@H](O)[C@H](C)O2)[C@H](C)[C@@H](O[C@@H]2O[C@H](C)C[C@H](N(C)C)[C@H]2O)[C@](C)(OC)C[C@@H](C)C(=O)[C@H](C)[C@@H](O)[C@]1(C)O [CLARITHROMYCIN] stands at 3 to 4 h

* * *

Tested on: Homo sapiens
Assay: Evaluation of pharmacokinetic parameters for 14 OH-Clarithromycin following multiple oral doses of Clarithromycin tablets.
Format: ADME, organism-based
Parameters: dose 250 mg, dose 500 mg, dose 1000 mg, route oral
Settings: in vivo, dose 250 mg, dosed compound id 21, dosed compound name CLARITHROMYCIN, regimen Every 12h, route oral, tissue Plasma
test-readout: t1/2

For reference, reported t1/2 for CO[C@]1(C)C[C@@H](C)C(=O)[C@H](C)[C@@H](O)[C@](C)(O)[C@@H](C(C)O)OC(=O)[C@H](C)[C@@H](O[C@H]2C[C@@](C)(OC)[C@@H](O)[C@H](C)O2)[C@H](C)[C@H]1O[C@@H]1O[C@H](C)C[C@H](N(C)C)[C@H]1O (stereo partly specified) stands at 5 to 6 h

* * *

Assay: Evaluation of pharmacokinetic parameters for Clarithromycin following multiple oral doses of Clarithromycin tablets.
Format: ADME, organism-based
Parameters: dose 250 mg, dose 500 mg, dose 1000 mg, route oral
Settings: human, in vivo, po; at 250 mg, dosed compound id 21, dosed compound name CLARITHROMYCIN, regimen Every 12h, route oral, tissue Urine; read-out: Excretion
test-readout: dose excreted (%)
Respond numerically; units are % and should not be typed.

For reference, reported dose excreted for `CC[C@H]1OC(=O)[C@H](C)[C@@H](O[C@H]2C[C@@](C)(OC)[C@@H](O)[C@H](C)O2)[C@H](C)[C@@H](O[C@@H]2O[C@H](C)C[C@H](N(C)C)[C@H]2O)[C@](C)(OC)C[C@@H](C)C(=O)[C@H](C)[C@@H](O)[C@]1(C)O` stands at 40

* * *

Tested on: Homo sapiens
Test: Evaluation of pharmacokinetic parameters for 14 OH-Clarithromycin following multiple oral doses of Clarithromycin tablets.
Format: ADME, organism-based
Design: dose 250 mg, dose 500 mg, dose 1000 mg, route oral
Conditions: in vivo, dose 500 mg, dosed compound id 21, dosed compound name CLARITHROMYCIN, regimen Every 12h, route oral, tissue Plasma
test-readout: t1/2

Query CO[C@]1(C)C[C@@H](C)C(=O)[C@H](C)[C@@H](O)[C@](C)(O)[C@@H](C(C)O)OC(=O)[C@H](C)[C@@H](O[C@H]2C[C@@](C)(OC)[C@@H](O)[C@H](C)O2)[C@H](C)[C@H]1O[C@@H]1O[C@H](C)C[C@H](N(C)C)[C@H]1O (stereo partly specified) on Homo sapiens; t1/2 returned: 7 to 9 h

* * *

Assay: Tmax for Clarithromycin evaluated after a single oral dose of 500 mg Clarithromycin tablets to fed and fasted subjects
Format: ADME, organism-based
Settings: human, in vivo, dietary status Fed, dosed compound id 21, dosed compound name CLARITHROMYCIN, regimen Single dose, tissue Plasma
test-readout: Tmax (h)
Respond numerically; units are h and should not be typed.

For reference, reported Tmax for `CC[C@H]1OC(=O)[C@H](C)[C@@H](O[C@H]2C[C@@](C)(OC)[C@@H](O)[C@H](C)O2)[C@H](C)[C@@H](O[C@@H]2O[C@H](C)C[C@H](N(C)C)[C@H]2O)[C@](C)(OC)C[C@@H](C)C(=O)[C@H](C)[C@@H](O)[C@]1(C)O` stands at 2.5
